Biological target: HMG-CoA synthase (Rattus norvegicus)
Construct: The livers from male Charles River CD rats (225-350 g) were homogenized; from tissue; host or cells: rat liver (male Charles River CD rats), 100,000 x g supernatant, ammonium sulfate and DEAE-52 fraction
Sequence (P17425 1-520): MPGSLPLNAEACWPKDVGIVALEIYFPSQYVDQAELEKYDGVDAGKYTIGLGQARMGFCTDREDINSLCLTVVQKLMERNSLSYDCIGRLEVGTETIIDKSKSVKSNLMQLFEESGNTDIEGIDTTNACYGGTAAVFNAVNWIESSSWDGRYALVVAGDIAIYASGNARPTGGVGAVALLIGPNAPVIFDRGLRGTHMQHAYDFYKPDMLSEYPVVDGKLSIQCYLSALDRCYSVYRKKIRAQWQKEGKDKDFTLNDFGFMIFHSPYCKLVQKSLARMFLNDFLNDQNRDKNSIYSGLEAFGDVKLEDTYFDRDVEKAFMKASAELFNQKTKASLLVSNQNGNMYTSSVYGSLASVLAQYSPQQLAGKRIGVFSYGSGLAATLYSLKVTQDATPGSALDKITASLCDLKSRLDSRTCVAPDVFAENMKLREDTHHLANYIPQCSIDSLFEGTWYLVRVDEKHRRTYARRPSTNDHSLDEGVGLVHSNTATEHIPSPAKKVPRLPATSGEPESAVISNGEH
Test: HMG-CoA Synthase Inhibition Assay
Assay type: biochemical
Settings: Table I; rat liver enzyme, 1-[14C]-acetyl-CoA incorporation
Experimental: The intrinisic HMG-CoA synthase inhibition activity of the compounds of this invention is measured by the standard in vitro protocol described below: […] Enzyme protein (ca. 24 mg) was added to a solution containing […] Tris-HCl (pH 8.0), 11.7 μM MgCl2, 1.17 μM ethylenediaminetetraacetic acid (EDTA), 0.58 μM dithiothreitol, and the indicated concentrations of the test compound (added as a 2 mg/ml solution in dimethylsulfoxide). […] Percent inhibition is calculated by the formula: [formula] […]
pIC50: −log10 of the molar value.
Please enter TRUE where pIC50 is greater than or equal to 7, and FALSE where it is lower.

| COMPOUND | ANSWER_LABEL |
| --- | --- |
| CC[C@@H]1C(=O)N(S(=O)(=O)c2ccc(C)cc2)[C@@H]1COC(=O)c1ccccc1N (relative stereo) [Table I n] | TRUE |
| CC[C@@H]1C(=O)N(S(=O)(=O)c2ccc(C)cc2)[C@@H]1COC(=O)c1ccoc1 (relative stereo) [Table I o] | FALSE |
| CC[C@@H]1C(=O)N(S(=O)(=O)c2ccc(C)cc2)[C@@H]1COC(=O)c1cccc([N+](=O)[O-])c1 (relative stereo) [Table I k] | TRUE |
| C=CCOc1c(NC(C)=O)cc(C(=O)OC[C@@H]2[C@H](CC)C(=O)N2S(=O)(=O)c2ccc(C)cc2)cc1OC (relative stereo) [Table I mm] | FALSE |
| CC[C@@H]1C(=O)N(S(=O)(=O)c2ccc(C)cc2)[C@@H]1COC(=O)c1ccccn1 (relative stereo) [Table I e] | TRUE |
| CC[C@@H]1C(=O)N(S(=O)(=O)c2ccc(C)cc2)[C@@H]1COC(=O)c1ccc(N)cc1 (relative stereo) [Table I kk] | TRUE |
| CCCCc1ccc(C(=O)OC[C@@H]2[C@H](CC)C(=O)N2S(=O)(=O)c2ccc(C)cc2)nc1 (relative stereo) [Table I h] | TRUE |
| CC[C@@H]1C(=O)N(S(=O)(=O)c2ccc(C)cc2)[C@@H]1COC(=O)c1ccc(C(=O)OC)cc1 (relative stereo) [Table I ii] | TRUE |
| CC[C@@H]1C(=O)N(S(=O)(=O)c2ccc(C)cc2)[C@@H]1COC(=O)c1ccc(C(=O)O)cc1 (relative stereo) [Table I x] | FALSE |
| CC[C@@H]1C(=O)N(S(=O)(=O)c2ccc(C)cc2)[C@@H]1COC(=O)c1ccc(OC)nc1 (relative stereo) [Table I f] | TRUE |
| CC[C@@H]1C(=O)N(S(=O)(=O)c2ccc(C)cc2)[C@@H]1COC(=O)c1cc2ccccc2oc1=O (relative stereo) [Table I ee] | TRUE |
| CC[C@@H]1C(=O)N(S(=O)(=O)c2ccc(C)cc2)[C@@H]1COC(=O)c1cccs1 (relative stereo) [Table I s] | TRUE |
